Tgt: FLT3 kinase (Homo sapiens, UniProt P36888)
Construct: purchased SignalChem
Sequence (P36888 27-993): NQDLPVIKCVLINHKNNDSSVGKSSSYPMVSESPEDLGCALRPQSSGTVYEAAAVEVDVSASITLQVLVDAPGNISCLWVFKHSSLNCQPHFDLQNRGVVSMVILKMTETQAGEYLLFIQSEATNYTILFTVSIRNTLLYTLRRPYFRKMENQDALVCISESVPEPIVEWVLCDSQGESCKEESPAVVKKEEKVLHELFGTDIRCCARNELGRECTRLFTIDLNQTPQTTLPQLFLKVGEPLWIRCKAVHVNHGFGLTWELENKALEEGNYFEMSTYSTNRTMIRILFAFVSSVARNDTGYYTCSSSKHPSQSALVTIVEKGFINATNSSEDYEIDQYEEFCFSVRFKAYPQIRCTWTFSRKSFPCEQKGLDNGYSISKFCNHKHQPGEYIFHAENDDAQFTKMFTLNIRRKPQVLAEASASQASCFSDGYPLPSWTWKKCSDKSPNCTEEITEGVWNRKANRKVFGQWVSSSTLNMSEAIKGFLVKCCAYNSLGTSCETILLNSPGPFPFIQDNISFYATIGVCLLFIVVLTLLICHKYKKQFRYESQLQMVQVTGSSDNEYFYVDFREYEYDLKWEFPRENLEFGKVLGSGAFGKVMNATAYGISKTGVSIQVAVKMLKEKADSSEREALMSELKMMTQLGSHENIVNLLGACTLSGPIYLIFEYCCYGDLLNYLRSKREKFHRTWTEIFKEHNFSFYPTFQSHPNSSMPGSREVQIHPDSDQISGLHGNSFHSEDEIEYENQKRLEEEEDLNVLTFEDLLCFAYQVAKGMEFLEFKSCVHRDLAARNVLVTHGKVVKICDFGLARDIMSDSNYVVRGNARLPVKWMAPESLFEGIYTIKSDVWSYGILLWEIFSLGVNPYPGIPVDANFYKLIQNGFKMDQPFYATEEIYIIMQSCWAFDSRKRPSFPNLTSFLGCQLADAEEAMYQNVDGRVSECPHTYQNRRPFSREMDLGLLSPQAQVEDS
Test Name: FLT3 kinase assay (AlphaScreen)
Type: biochemical
Condition Summary: read-out: Ranking of IC50 values, FLT3
Measured Endpoint: IC50

# count of solved cases: 3
Structure As Smiles: CN(C)c1ccc(-c2cc3c(s2)Cc2c(-c4ccc5cnn(C)c5c4)n[nH]c2-3)cn1
Tgt: FLT3 kinase (Homo sapiens, UniProt P36888)
IC50: 1 to 10 nM
--
Structure As Smiles: Cn1nnc2ccc(-c3n[nH]c4c3Cc3sc(-c5ccc(CN6CCOCC6)cc5)cc3-4)cc21
Tgt: FLT3 kinase (Homo sapiens, UniProt P36888)
IC50: 1 to 10 nM
--
Structure As Smiles: Cn1ncc2ccc(-c3n[nH]c4c3Cc3sc(-c5ccc(CN6CC(F)(F)C6)cc5)cc3-4)cc21
Tgt: FLT3 kinase (Homo sapiens, UniProt P36888)
IC50: 1 to 10 nM

Please give measured IC50 of the following entry: Cn1ncc2ccc(-c3n[nH]c4c3Cc3sc(-c5cc(C(=O)N6CCOCC6)ccn5)cc3-4)cc21 1 to 10 nM

Please give measured IC50 of the following entry: COC1CN(Cc2ccc(-c3cc4c(s3)Cc3c(-c5ccc6cnn(C)c6c5)n[nH]c3-4)cc2)C1 < 1 nM

Please give measured IC50 of the following entry: COc1ccc(-c2cc3c(s2)Cc2c(-c4ccc5cnn(C)c5c4)n[nH]c2-3)cn1 1 to 10 nM

Please give measured IC50 of the following entry: Cc1cc(CN2CCOCC2)ccc1-c1cc2c(s1)Cc1c(-c3ccc4cnn(C)c4c3)n[nH]c1-2 1 to 10 nM

Please give measured IC50 of the following entry: Cn1ncc2ccc(-c3n[nH]c4c3Cc3sc(-c5csc(CN6CCOCC6)c5)cc3-4)cc21 < 1 nM

* * *

Test system: MV4-11 human acute myeloid leukemia cell with FLT3-ITD mutation
Test Name: MV4-11 cell proliferation assay (CellTiter 96)
Assay type: cell-based
Condition Summary: Homo sapiens, MV4-11, 72 h, MV4-11 cells, 72 hours treatment, CellTiter96; read-out: anti-proliferation activity MV4-11 (FLT3-ITD), IC50 ranking
pIC50: −log10 of the molar value.
Measured Endpoint: pIC50

# count of solved cases: 4
Molecule: COc1cc(-c2cc3c(s2)Cc2c(-c4ccc5cnn(C)c5c4)n[nH]c2-3)ccc1CN1CCOCC1
Value Measured: > 7.52
--
Molecule: CN1CCN(c2ccc(-c3cc4c(s3)Cc3c(-c5ccc6cnn(C)c6c5)n[nH]c3-4)cn2)CC1
Value Measured: > 7.52
--
Molecule: Cn1ncc2ccc(-c3n[nH]c4c3Cc3sc(-c5ccc(CN6CCC(N7CCOCC7)CC6)cc5)cc3-4)cc21
Value Measured: > 7.52
--
Molecule: CCC(c1ccc(-c2cc3c(s2)Cc2c(-c4ccc5cnn(C)c5c4)n[nH]c2-3)cc1)N1CCOCC1 (stereo not drawn)
Value Measured: 7.00 to 7.52

Please give measured pIC50 of the following entry: CN(C)C(=O)c1ccc(-c2cc3c(s2)Cc2c(-c4ccc5cnn(C)c5c4)n[nH]c2-3)cc1 > 7.52

Please give measured pIC50 of the following entry: Cn1ncc2ccc(-c3n[nH]c4c3Cc3sc(-c5ccc(CN6CCOC6=O)cc5)cc3-4)cc21 > 7.52
